// provenance: patent US8871934B2

- system name: human PDHK2 (hPDHK2) (Homo sapiens (Human), UniProt Q15119)
- protocol notes: Inhibitory action of PDHK activity in vitro (kinase reaction, residual PDH activity measured)
- Assay type: biochemical
- measurement parameters: PDHK inhibitory activity, class symbol of IC50
pIC50: −log10 of the molar value.
Listed here: items and their measured pIC50.

The following compounds have reported results that may help.
Cn1cc(-c2cc(OCCCCCO)cc3c2-c2ccccc2C3(O)C(F)(F)F)cn1 (stereo not shown) [compound 407]	> 7.00
OC1(C(F)(F)F)c2ccccc2-c2ccc(C3CC3)cc21 (stereo not shown) [compound 244]	< 6.00
CCn1cc(-c2cc(C(N)=O)c3c(c2)C(O)(C(F)(F)F)c2ccccc2-3)cn1 (stereo not shown) [compound 530]	> 7.00

For the next question, use this compound.
Item O=C(COc1ccc2c(c1)C(O)(C(F)(F)F)c1ccccc1-2)NCCO (stereo not shown) [compound 365] ; assay system human PDHK2 (hPDHK2) (Homo sapiens (Human), UniProt Q15119); pIC50 reported as < 6.00

----------
- system name: human PDHK2 (hPDHK2) (Homo sapiens (Human))
- protocol notes: Inhibitory action of PDHK activity in vitro (kinase reaction, residual PDH activity measured)
- Format: biochemical
- measurement parameters: read-out: PDHK inhibitory activity IC50
measured property: pIC50
Schema: pIC50 number; meaning minus log10 of the concentration expressed in molar units.

Consider the following illustrative entries.
C/C=C/c1cc(-c2cnn(C(CO)CO)c2)c2c(c1)C(O)(C(F)(F)F)c1ccccc1-2 (centres unmarked)	7.60
CCCNC(=O)c1ccc2c(c1)C(O)(C(F)(F)F)c1ccccc1-2 (centres unmarked)	5.35
Cn1cc(-c2cc(OCCCC(=O)O)cc3c2-c2ccccc2C3(O)C(F)(F)F)cn1 (centres unmarked) [compound 449]	7.33
CCCOC(=O)c1cccc2c1-c1ccccc1C2(O)C(F)(F)F (centres unmarked)	6.11
CN(C)C(=O)C1CCN(C(=O)c2ccc3c(c2)C(O)(C(F)(F)F)c2ccccc2-3)C1 (centres unmarked)	6.26
CNC1CCN(C(=O)c2ccc3c(c2)C(O)(C(F)(F)F)c2ccccc2-3)C1 (centres unmarked)	5.66

Moving on to another compound below.
Entry O=C(COc1ccc2c(c1)C(O)(C(F)(F)F)c1ccccc1-2)NCCO (centres unmarked) , pIC50 reported as 5.88

----------
Each entry below carries its reported log10 of IC50.
- system name: human PDHK2 (hPDHK2) (Homo sapiens (Human))
- protocol notes: Inhibitory action of PDHK activity in vitro (kinase reaction, residual PDH activity measured)
- Format: biochemical
- measurement parameters: read-out: PDHK inhibitory activity IC50
Field: value | Transform: log10 | Quantity: IC50 | Unit: nM

COC(=O)COc1cc(Cl)c2c(c1)C(O)(C(F)(F)F)c1ccccc1-2 (stereo not shown) [compound 480]	2.74
CCOC(=O)C1CCN(c2ccc3c(c2)C(O)(C(F)(F)F)c2ccccc2-3)CC1 (stereo not shown)	3.37

Given item Cn1cc(-c2cc(C(=O)N3CC(OCCO)C3)cc3c2-c2ccccc2C3(O)C(F)(F)F)cn1 (stereo not shown) , the value recorded as its log10 of IC50 is 1.70

Entry CNCCCOc1ccc2c(c1)C(O)(C(F)(F)F)c1ccccc1-2 (stereo not shown) , log10 of IC50 reported as 2.96

For this compound ( OC1(C(F)(F)F)c2ccccc2-c2ccc(-c3cccnc3)cc21 (stereo not shown) ), measured log10 of IC50 is 2.51

The reported value for OCC(CO)c1noc(-c2cc(F)cc3c2-c2ccccc2C3(O)C(F)(F)F)n1 (single isomer, unassigned) in terms of log10 of IC50 is 2.53

// field: log10 of IC50; key: Cc1cc(-c2cnn(CCC(=O)O)c2)c2c(c1)C(O)(C(F)(F)F)c1ccccc1-2 (single isomer, unassigned; (+)) ; value = 1.41

Sample CC1CCCN1c1ccc2c(c1)C(O)(C(F)(F)F)c1ccccc1-2 (stereo not shown) ; log10 of IC50 observed: 3.69

# log10 of IC50 (compound: N#Cc1ccc2c(c1)C(O)(C(F)(F)F)c1ccccc1-2 (stereo not shown) ) is 3.16
